conditions: [M+H]+; instrument: TW; calibrated with polyalanine and drug standards

COMPOUND	UNIT_OF_MEASURE	collision cross section (N2)
C[C@@H]1CN(c2c(F)c(F)c3c(=O)c(C(=O)O)cn(C4CC4)c3c2F)C[C@H](C)N1 [ORBIFLOXACIN]	Å²	196.7
C[C@@H]1O[C@@H](O[C@H]2C[C@@H](O)[C@]3(CO)[C@H]4[C@H](O)C[C@]5(C)[C@@H](C6=CC(=O)OC6)CC[C@]5(O)[C@@H]4CC[C@]3(O)C2)[C@H](O)[C@H](O)[C@H]1O [OUABAIN]	Å²	234
O=C1C=C2C=C[C@@H]3C[C@@]2(O1)[C@H]1CCCCN31 [SECURININE]	Å²	146.4

---

conditions: [M+H]+; instrument: TW; calibrated with polyalanine and drug standards
EXPERIMENTAL_READOUT: collision cross section (N2)

COMPOUND	EXPERIMENTAL_READOUT	ASSAY_RESULT
Nc1ccc(S(=O)(=O)c2ccc(N)cc2)cc1	collision cross section (N2)	151.7 Å²
O=C1C=CC(=C(c2ccc(O)cc2)c2ccc(O)cc2)C=C1	collision cross section (N2)	169.1 Å²
COc1ccc(-c2coc3cc(O)ccc3c2=O)c(O)c1O	collision cross section (N2)	162.1 Å²
O=C1CCc2cc(OCCCCc3nnnn3C3CCCCC3)ccc2N1	collision cross section (N2)	199.7 Å²
CC(=O)Oc1cc(OC(C)=O)c2c(c1)O[C@H](c1ccc(OC(C)=O)c(OC(C)=O)c1)[C@H](OC(C)=O)C2 [EPICATECHIN PENTAACETATE]	collision cross section (N2)	207.3 Å²
CN/C(=C\[N+](=O)[O-])NCCSCc1ccc(CN(C)C)o1	collision cross section (N2)	167 Å²
CN1[C@@H]2CC[C@H]1CC(OC(=O)[C@H](CO)c1ccccc1)C2 (stereo partly drawn)	collision cross section (N2)	169.7 Å²
CN1C[C@H](CNC(=O)OCc2ccccc2)C[C@@H]2c3cccc4c3c(cn4C)C[C@H]21	collision cross section (N2)	197.6 Å²

---

conditions: [M+Na]+; instrument: DT; single field, calibrated with ESI Low Concentration Tuning Mix (Agilent)

MOLECULE	collision cross section (N2) [Å²]
NC(N)=NCC(=O)O [GUANIDINOACETATE]	134.6
Nc1ccn([C@@H]2O[C@H](COP(=O)(O)OP(=O)(O)OP(=O)(O)O)[C@@H](O)[C@H]2O)c(=O)n1 [CYTIDINE TRIPHOSPHATE]	192.4
NC(CCSSCCC(N)C(=O)O)C(=O)O (stereo unspecified)	158.8
OC[C@@H](O)C(O)[C@@H](O)CO (stereo partly specified) [RIBITOL]	136.2
OC[C@H]1O[C@H](O[C@H]2[C@H](O)[C@@H](O)[C@H](O)O[C@@H]2CO)[C@H](O)[C@@H](O)[C@@H]1O	178.9
CC(=O)NCCCC(=O)O [4-ACETAMIDOBUTANOATE]	135.7

---

The following compounds are shown together with reported collision cross section (N2) values.
conditions: [M+Na]+; instrument: DT; stepped-field

COMPOUND	collision cross section (N2)
O=C(O)[C@H](O)[C@@H](O)CO [L-Threonic Acid]	136.93 Å²
OC[C@@H](O)[C@H](O)[C@H](O)[C@@H](O)CO [Galactitol]	145.91 Å²
Cc1ncc(COP(=O)(O)O)c(C=O)c1O [Pyridoxal 5'-Phosphate]	165.05 Å²

Numbers sourced from the C3SDB collision cross section collection.
